test: PK analysis by LC/MS; format: in vivo; settings: rat, in vivo, iv, 1 mg/kg
Square brackets hold non-standard residues; d marks the D form. Peptide text beside a SMILES is read from it. * marks the point of attachment. X1 = C[C@@H](CCC[N+](C)(C)C)C(=O)*; Tle = CC(C)(C)[C@H](N)C(=O)O
measurement-type: Tmax

get_value(item= CC(C)C[C@H](NC(=O)[C@@H](NC(=O)[C@H](Cc1ccc(O)cc1)NC(=O)[C@@H]1CCCN1C(=O)[C@H](CCCNC(=N)N)NC(=O)[C@@H](C)CCC[N+](C)(C)C)C(C)(C)C)C(=O)O [Compound 1] (X1-RPY[Tle]L-OH; N-terminus assumed) , readout=Tmax) returns ≤ 5 min

---

assay: PK analysis by LC/MS; type: in vivo; settings: rat, plasma, iv, 1 mg/kg
Square brackets hold non-standard residues; d marks the D form. Peptide text beside a SMILES is read from it. * marks the point of attachment. X1 = C[C@@H](CCC[N+](C)(C)C)C(=O)*; Tle = CC(C)(C)[C@H](N)C(=O)O
measurement-type: half-life

# half-life of CC(C)C[C@H](NC(=O)[C@@H](NC(=O)[C@H](Cc1ccc(O)cc1)NC(=O)[C@@H]1CCCN1C(=O)[C@H](CCCNC(=N)N)NC(=O)[C@@H](C)CCC[N+](C)(C)C)C(C)(C)C)C(=O)O [Compound 1] (X1-RPY[Tle]L-OH; N-terminus assumed) = 26.3 min
